System Name: T1, human DLL3 on SHP-77 cells (human, UniProt Q9NYJ7 27-618)
T1 construct: also called DLL3-expressing cells (SHP-77)
T1 sequence: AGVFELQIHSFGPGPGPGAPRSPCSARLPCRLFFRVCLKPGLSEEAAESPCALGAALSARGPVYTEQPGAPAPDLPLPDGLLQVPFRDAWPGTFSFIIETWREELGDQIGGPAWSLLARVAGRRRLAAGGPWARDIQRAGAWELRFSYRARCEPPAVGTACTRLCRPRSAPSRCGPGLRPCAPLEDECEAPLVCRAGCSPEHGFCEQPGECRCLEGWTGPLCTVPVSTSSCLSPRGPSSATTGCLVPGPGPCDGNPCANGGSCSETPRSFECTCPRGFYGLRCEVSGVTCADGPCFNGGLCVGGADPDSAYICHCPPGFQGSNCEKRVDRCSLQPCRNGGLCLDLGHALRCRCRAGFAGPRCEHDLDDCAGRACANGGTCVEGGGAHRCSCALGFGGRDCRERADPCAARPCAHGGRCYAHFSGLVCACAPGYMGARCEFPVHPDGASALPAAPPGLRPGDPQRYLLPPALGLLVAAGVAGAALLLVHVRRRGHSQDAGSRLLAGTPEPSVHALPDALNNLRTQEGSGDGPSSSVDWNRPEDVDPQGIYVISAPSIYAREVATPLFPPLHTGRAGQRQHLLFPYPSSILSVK
Assay Name: flow cytometry, SHP-77 cells
Readout Kind: pEC50
Please treat pEC50 as minus the base-10 logarithm of the molar concentration.

Binder | pEC50
DLL3-12 camelid-derived anti-DLL3 chimeric antibody (antibody, human IgG1, V domains shown) VH: QVQLVESGGGLVQPGESLRLSCAGSGFAFSSYDMHWVRQAPGKDFEWVSSISRDGRGPRYADFVKGRFTISKDNGRNMLYLQLNSLEIEDTAMYYCSKGYPIMGGTTQGTQVTVSS | 9.94
DLL3-276 camelid-derived anti-DLL3 chimeric antibody (antibody, human IgG1, V domains shown) VH: QVQLVESGGGSVQAGGSLNLSCATSGSTASTTYMGWFRQAPGKGREGVAIIYTARDNPWYANSVKGRFIISQDNAKKTLYLQMNTLKPEDTATYYCAATLANPTRTAWGQGTLVTVSS | 9.40
hDLL3-3-2 camelid-derived humanized anti-DLL3 antibody (antibody, V domains shown) VH: EVQLVESGGGLVQPGGSLRLSCKSPTYTISSGYMGWFRQAPGKEREGVAAIYIGGSTTLYADSVKGRFTISRDNSKNTLYLQMNSLRAEDTAVYYCAAQLRPNSAYHPLDGRKYNYWGQGTLVTVSS | 10.31

Proceeding to the next binder to report its pEC50.
INPUT: // fetch pEC50 given entry hDLL3-3-1 camelid-derived humanized anti-DLL3 antibody (antibody, human IgG1, V domains shown) VH: EVQLVESGGGLVQPGGSLRLSCAASTYTISSGYMGWFRQAPGKEREGVAAIYIGGSTTLYADSVKGRFTISRDNSKNTLYLQMNSLRAEDTAVYYCAAQLRPNSAYHPLDGRKYNYWGQGTLVTVSS
OUTPUT: 10.07
